tested on: DeltatarO mutant; experiment: S. aureus survival, RN4220 and DeltatarO strains – OD600, teichoic acid synthesis inhibitors, primary screen (AID 463173); details: S. aureus RN4220 wild type/DeltatarO growth, OD600, 18 h, screened at 18.75 µg/mL (by protocol)
The whole screen tested about 52,000 compounds, of which about 4,300 (8.3%) were called active. No stated cut-off is given here; in the data, active means survival mostly below about 52% (no sharp cut-off); inactive means mostly above about 56%. Many of the other results were omitted from the sample, so actives are more common in it than they were.
Please answer using one outcome listed in yes (1) = active, no (0) = inactive

{"compound": "Cc1cc(OCC(=O)Nc2cc(-c3nc4ccccc4[nH]3)ccc2C)ccc1Cl", "groupLabel": "no (0)"}
{"compound": "COc1ccccc1/C=C/c1nc(C#N)c(N2CCCCC2)o1", "groupLabel": "no (0)"}
{"compound": "CCOc1ccc(OCC)c(NC(=O)c2cc(-c3cccs3)nc3ccccc23)c1", "groupLabel": "no (0)"}
{"compound": "Cc1ccc(Cl)cc1NC(=O)CCCn1c(=O)c2cccn2c2cccnc21", "groupLabel": "no (0)"}
{"compound": "CC(C)NC(=O)Cn1c(SCC(=O)N2CCc3ccccc32)nc2ccccc21", "groupLabel": "no (0)"}

Exercise: Could you please tell me the result logged for CC(C)CC(=O)Nc1cccc(-c2nc3ccccc3[nH]2)c1 in this assay?
Solution: no (0)

Exercise: Could you please tell me the result logged for CCc1cccc(NC(=O)Cn2c(=O)n(CC(=O)NCCc3ccccc3)c(=O)c3ccccc32)c1 in this assay?
Solution: no (0)

----------
tested on: DeltatarO mutant; assay: S. aureus survival, RN4220 and DeltatarO strains – OD600, teichoic acid synthesis inhibitors, primary screen (AID 463173); conditions: S. aureus RN4220 wild type/DeltatarO growth, OD600, 18 h, screened at 18.75 µg/mL (by protocol)
Hit rate of the full screen: of about 52,000 compounds, about 4,300 (8.3%) were called active. Rule as the data show it: active = survival mostly below about 52% (no sharp cut-off); inactive = mostly above about 56%. Many of the other results were omitted from the sample, so actives are more common in it than they were.
Please answer using one outcome listed in active, inactive

Look over these answered cases.
{"molecule": "CCOc1ccc(CC(=O)NCc2ccc3c(c2)CCN3C(=O)c2ccccc2)cc1OCC", "subjectOfTest": "DeltatarO mutant", "groupLabel": "inactive"}
{"molecule": "COc1cccc(CN2C(=O)c3ccccc3Sc3ccc(C(=O)N(C)Cc4ccccc4)cc32)c1", "subjectOfTest": "DeltatarO mutant", "groupLabel": "inactive"}
{"molecule": "CC1(C)CC(=O)C=C(NCC2CCNCC2)C1", "subjectOfTest": "DeltatarO mutant", "groupLabel": "inactive"}

Exercise: Could you please tell me the result logged for COc1cc(CNc2ccc3[nH]c(=O)[nH]c3c2)cc(Cl)c1OCc1ccc(F)cc1 in this assay?
Solution: inactive

Exercise: Could you please tell me the result logged for O=C1COc2ccccc2N1Cc1c(F)cccc1Cl in this assay?
Solution: inactive

Exercise: Could you please tell me the result logged for CCOc1cc(CNc2ccc(C(=O)O)cc2)ccc1OCc1ccccc1 in this assay?
Solution: active

Exercise: Could you please tell me the result logged for CC1CCN(S(=O)(=O)c2ccc3c(c2)oc(=O)n3CC(=O)N2CCCCC2)CC1 in this assay?
Solution: inactive

Exercise: Could you please tell me the result logged for CCOc1cc(CNc2ccc(O)cc2)ccc1OCc1ccc(Cl)cc1 in this assay?
Solution: inactive

Exercise: Could you please tell me the result logged for CCC(c1nnnn1CCOC)N1CCN(c2cccc(C(F)(F)F)c2)CC1 (stereo unspecified) in this assay?
Solution: inactive

Exercise: Could you please tell me the result logged for Cc1ccc(NC(=O)C2CCCN(S(=O)(=O)c3ccc4c(c3)oc(=O)n4C)C2)cc1Cl (stereo unspecified) in this assay?
Solution: inactive

Exercise: Could you please tell me the result logged for COC(=O)c1cc2oc3ccccc3c2n1Cc1nc(-c2ccc(Cl)cc2)oc1C in this assay?
Solution: inactive
